This collection of values is drawn from patent US7691856B2.

Reported Ki values, hCXCR2 (Homo sapiens).

- molecule: "CC(C)c1coc([C@H](NC2=NS(=O)(=O)N=C2Nc2ccc(Br)c(C(=O)N(C)C)c2O)C(C)(C)C)c1"
  targetOrSystem: "hCXCR2 (Homo sapiens)"
  Ki (nM): 7
- molecule: "Cc1cc([C@H](Nc2n[s+]([O-])nc2Nc2cccc(C(=O)N(C)C)c2O)C(C)C)oc1C (some centres unmarked)"
  targetOrSystem: "hCXCR2 (Homo sapiens)"
  Ki (nM): 2.7

---

Measured Ki on hCXCR1 (Homo sapiens) follows.
Sequence (P25024 whole entry): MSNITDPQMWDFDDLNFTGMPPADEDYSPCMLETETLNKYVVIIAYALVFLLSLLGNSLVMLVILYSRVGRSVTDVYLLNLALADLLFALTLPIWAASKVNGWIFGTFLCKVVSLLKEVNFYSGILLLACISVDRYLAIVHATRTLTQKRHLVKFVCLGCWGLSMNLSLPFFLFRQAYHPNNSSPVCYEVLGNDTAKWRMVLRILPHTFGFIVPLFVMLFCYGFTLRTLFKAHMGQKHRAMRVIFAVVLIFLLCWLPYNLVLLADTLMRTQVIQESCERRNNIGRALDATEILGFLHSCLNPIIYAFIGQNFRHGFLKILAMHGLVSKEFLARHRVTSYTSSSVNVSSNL
measuredEndpoint: Ki (µM)

- molecule: "CC[C@@H](Nc1n[s+]([O-])nc1Nc1cccc(C(=O)N(C)C)c1O)c1cc(C(C)C)co1 (some centres unmarked)"
  experimentalValue: 0.123
- molecule: "CC(C)c1coc([C@H](NC2=NS(=O)(=O)N=C2Nc2ccc(Br)c(C(=O)N(C)C)c2O)C(C)(C)C)c1"
  experimentalValue: 0.004

---

# targetOrSystem: CCR7 (Homo sapiens, UniProt P32248)
# Sequence (P32248 25-378, species assumed): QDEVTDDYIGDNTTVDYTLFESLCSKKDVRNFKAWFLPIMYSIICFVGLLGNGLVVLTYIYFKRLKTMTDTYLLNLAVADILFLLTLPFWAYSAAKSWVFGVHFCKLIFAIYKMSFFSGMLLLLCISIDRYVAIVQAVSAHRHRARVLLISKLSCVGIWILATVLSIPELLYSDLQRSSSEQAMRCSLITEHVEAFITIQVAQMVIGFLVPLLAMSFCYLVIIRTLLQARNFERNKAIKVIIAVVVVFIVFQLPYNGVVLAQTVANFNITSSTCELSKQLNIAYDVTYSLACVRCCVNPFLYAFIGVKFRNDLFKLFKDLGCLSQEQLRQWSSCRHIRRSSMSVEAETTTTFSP
# testSummary: CCR7 [35S]GTPγS exchange assay (SPA, Ba/F3-CCR7 membranes)

- itemSmiles: "CCN(CC)S(=O)(=O)c1scc(NC2=NS(=O)(=O)N=C2N[C@@H](c2ccc(C)o2)C(C)(C)C)c1O"
  targetOrSystem: "CCR7 (Homo sapiens, UniProt P32248)"
  unitsOfMeasure: "nM"
  EC50: 13
- itemSmiles: "CCC(C)(C)[C@@H](NC1=NS(=O)(=O)N=C1Nc1cccc(C(=O)N(C)C)c1O)c1ccc(C)o1"
  targetOrSystem: "CCR7 (Homo sapiens, UniProt P32248)"
  unitsOfMeasure: "nM"
  EC50: 12
- itemSmiles: "Cc1ccc([C@H](NC2=NS(=O)(=O)N=C2Nc2csc(S(=O)(=O)N3CCOCC3)c2O)C(C)(C)C)o1"
  targetOrSystem: "CCR7 (Homo sapiens, UniProt P32248)"
  unitsOfMeasure: "nM"
  EC50: 16
